# procedure summary: Cytotoxic activity against human HeLa cells assessed as cell viability at 1 ug/ml incubated for 24 hrs by MTT assay
# Type: cell-based
# particulars: read-out: Activity
experimental readout: viability at 24 h, 1 ug/ml (%)
Give the value, in units of %, as a plain number.

Cc1cc(NS(=O)(=O)c2ccc(Nc3ccnc4cc(Cl)ccc34)cc2)no1 | 72

Incoming: What value of viability at 24 h, 1 ug/ml has been recorded for this entry: NNC(=O)c1cccnc1 [NICOTINIC ACID HYDRAZIDE]
Outgoing: 87

Incoming: What value of viability at 24 h, 1 ug/ml has been recorded for this entry: NS(=O)(=O)c1ccc(Nc2ccnc3cc(Cl)ccc23)cc1
Outgoing: 95

Incoming: What value of viability at 24 h, 1 ug/ml has been recorded for this entry: CCN(CC)CCCC(C)Nc1ccnc2cc(Cl)ccc12 (configuration not stated)
Outgoing: 94

Incoming: What value of viability at 24 h, 1 ug/ml has been recorded for this entry: O=S(=O)(Nc1ncccn1)c1ccc(Nc2ccnc3cc(Cl)ccc23)cc1
Outgoing: 82

Incoming: What value of viability at 24 h, 1 ug/ml has been recorded for this entry: O=S(=O)(Nc1nccs1)c1ccc(Nc2ccnc3cc(Cl)ccc23)cc1
Outgoing: 71

Incoming: What value of viability at 24 h, 1 ug/ml has been recorded for this entry: O=S(=O)(Nc1ccccn1)c1ccc(Nc2ccnc3cc(Cl)ccc23)cc1
Outgoing: 78

----------
# procedure summary: Cytotoxic activity against human HepG2 cells assessed as cell viability at 0.1 ug/ml incubated for 24 hrs by MTT assay
# Assay type: cell-based
# particulars: read-out: Activity
experimental readout: viability at 24 h, 0.1 ug/ml (%)
Give the value, in units of %, as a plain number.

# example entries with known answers
CCN(CC)CCCC(C)Nc1ccnc2cc(Cl)ccc12 (centres undefined) | 93
O=S(=O)(Nc1ccccn1)c1ccc(Nc2ccnc3cc(Cl)ccc23)cc1 | 92
NS(=O)(=O)c1ccc(Nc2ccnc3cc(Cl)ccc23)cc1 | 93

Proceeding to the next compound to report its viability at 24 h, 0.1 ug/ml.
Incoming: What value of viability at 24 h, 0.1 ug/ml has been recorded for this entry: O=S(=O)(Nc1ncccn1)c1ccc(Nc2ccnc3cc(Cl)ccc23)cc1
Outgoing: 85

----------
# procedure summary: Cytotoxic activity against human HeLa cells assessed as cell viability at 10 ug/ml incubated for 24 hrs by MTT assay
# Type: cell-based
# particulars: read-out: Activity
experimental readout: viability at 24 h, 10 ug/ml (%)
Give the value, in units of %, as a plain number.

# example entries with known answers
CCN(CC)CCCC(C)Nc1ccnc2cc(Cl)ccc12 (configuration not stated) | 97
O=S(=O)(Nc1nccs1)c1ccc(Nc2ccnc3cc(Cl)ccc23)cc1 | 60
NNC(=O)c1cccnc1 [NICOTINIC ACID HYDRAZIDE] | 92

Incoming: What value of viability at 24 h, 10 ug/ml has been recorded for this entry: NS(=O)(=O)c1ccc(Nc2ccnc3cc(Cl)ccc23)cc1
Outgoing: 100

Incoming: What value of viability at 24 h, 10 ug/ml has been recorded for this entry: Cc1cc(NS(=O)(=O)c2ccc(Nc3ccnc4cc(Cl)ccc34)cc2)no1
Outgoing: 59

Incoming: What value of viability at 24 h, 10 ug/ml has been recorded for this entry: O=S(=O)(Nc1ccccn1)c1ccc(Nc2ccnc3cc(Cl)ccc23)cc1
Outgoing: 68

Incoming: What value of viability at 24 h, 10 ug/ml has been recorded for this entry: O=S(=O)(Nc1ncccn1)c1ccc(Nc2ccnc3cc(Cl)ccc23)cc1
Outgoing: 76
